# study system: Cav1.1 channels (dihydropyridine receptors) (Mus musculus)
# Construct: endogenous in cells; host or cells: single skeletal muscle fibers isolated from C57 mouse flexor digitorum brevis (FDB) muscle
# Sequence (Q02789 whole entry): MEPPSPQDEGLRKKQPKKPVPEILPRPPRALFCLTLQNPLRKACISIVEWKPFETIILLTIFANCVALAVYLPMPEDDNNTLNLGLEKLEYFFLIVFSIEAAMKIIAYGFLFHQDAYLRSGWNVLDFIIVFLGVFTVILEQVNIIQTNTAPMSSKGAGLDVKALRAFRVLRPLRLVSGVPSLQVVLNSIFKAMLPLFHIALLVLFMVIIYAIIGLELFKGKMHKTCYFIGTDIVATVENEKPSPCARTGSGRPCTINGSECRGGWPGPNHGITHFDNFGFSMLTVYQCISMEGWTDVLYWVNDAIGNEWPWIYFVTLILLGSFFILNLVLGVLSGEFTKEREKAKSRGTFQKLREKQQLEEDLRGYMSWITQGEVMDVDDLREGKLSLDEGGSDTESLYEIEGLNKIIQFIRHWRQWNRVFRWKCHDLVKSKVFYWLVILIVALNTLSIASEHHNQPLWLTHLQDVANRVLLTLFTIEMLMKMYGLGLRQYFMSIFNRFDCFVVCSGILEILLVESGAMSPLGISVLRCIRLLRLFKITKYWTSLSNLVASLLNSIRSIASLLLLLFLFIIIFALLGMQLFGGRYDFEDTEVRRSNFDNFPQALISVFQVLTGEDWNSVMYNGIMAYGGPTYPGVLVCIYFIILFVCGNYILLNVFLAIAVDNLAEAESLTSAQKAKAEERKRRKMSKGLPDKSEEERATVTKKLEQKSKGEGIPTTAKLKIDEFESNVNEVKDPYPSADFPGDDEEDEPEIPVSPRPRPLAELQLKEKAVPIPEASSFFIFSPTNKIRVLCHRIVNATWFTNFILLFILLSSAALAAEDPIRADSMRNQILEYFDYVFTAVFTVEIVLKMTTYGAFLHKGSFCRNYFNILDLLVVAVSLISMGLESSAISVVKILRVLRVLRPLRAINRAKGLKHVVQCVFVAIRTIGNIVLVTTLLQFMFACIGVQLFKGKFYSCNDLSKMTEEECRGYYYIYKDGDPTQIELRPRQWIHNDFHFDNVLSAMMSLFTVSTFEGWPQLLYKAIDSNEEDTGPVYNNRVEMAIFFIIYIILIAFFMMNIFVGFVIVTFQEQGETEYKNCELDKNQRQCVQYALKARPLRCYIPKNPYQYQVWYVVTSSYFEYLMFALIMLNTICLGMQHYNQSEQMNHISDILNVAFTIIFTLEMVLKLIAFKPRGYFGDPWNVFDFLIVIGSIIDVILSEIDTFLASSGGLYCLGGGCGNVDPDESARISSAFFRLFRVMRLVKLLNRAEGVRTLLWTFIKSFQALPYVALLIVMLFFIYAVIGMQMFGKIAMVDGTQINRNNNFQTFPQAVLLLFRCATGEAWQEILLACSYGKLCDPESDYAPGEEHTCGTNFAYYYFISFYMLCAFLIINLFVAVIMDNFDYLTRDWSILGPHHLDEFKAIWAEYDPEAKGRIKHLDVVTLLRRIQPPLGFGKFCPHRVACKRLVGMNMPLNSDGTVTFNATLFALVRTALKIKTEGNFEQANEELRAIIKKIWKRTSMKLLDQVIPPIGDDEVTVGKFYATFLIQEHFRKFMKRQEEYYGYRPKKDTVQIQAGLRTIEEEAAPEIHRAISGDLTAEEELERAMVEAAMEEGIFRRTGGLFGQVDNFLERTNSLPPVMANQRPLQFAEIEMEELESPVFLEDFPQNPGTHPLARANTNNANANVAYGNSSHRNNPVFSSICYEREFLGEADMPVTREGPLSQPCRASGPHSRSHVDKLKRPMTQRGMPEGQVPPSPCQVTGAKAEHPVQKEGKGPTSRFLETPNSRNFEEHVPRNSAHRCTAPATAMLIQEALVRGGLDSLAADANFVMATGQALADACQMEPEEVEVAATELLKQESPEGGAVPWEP
# Sequence (Q8R3Z5 whole entry partner): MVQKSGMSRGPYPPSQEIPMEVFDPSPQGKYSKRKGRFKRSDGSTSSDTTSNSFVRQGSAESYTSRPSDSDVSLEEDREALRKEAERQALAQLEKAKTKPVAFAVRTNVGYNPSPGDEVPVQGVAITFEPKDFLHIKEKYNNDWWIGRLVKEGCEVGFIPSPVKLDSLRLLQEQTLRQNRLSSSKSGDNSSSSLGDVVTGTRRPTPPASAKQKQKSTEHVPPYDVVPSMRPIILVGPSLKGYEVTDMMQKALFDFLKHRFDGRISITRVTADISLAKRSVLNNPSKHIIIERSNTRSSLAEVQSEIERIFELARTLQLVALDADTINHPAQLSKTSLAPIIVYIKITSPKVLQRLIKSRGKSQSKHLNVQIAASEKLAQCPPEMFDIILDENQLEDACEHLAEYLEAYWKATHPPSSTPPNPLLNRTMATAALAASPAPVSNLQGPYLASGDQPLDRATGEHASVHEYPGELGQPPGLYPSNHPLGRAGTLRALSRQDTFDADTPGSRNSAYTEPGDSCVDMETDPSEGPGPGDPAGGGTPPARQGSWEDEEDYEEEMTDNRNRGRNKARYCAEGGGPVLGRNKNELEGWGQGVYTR
# Sequence (O08532 25-1103 partner): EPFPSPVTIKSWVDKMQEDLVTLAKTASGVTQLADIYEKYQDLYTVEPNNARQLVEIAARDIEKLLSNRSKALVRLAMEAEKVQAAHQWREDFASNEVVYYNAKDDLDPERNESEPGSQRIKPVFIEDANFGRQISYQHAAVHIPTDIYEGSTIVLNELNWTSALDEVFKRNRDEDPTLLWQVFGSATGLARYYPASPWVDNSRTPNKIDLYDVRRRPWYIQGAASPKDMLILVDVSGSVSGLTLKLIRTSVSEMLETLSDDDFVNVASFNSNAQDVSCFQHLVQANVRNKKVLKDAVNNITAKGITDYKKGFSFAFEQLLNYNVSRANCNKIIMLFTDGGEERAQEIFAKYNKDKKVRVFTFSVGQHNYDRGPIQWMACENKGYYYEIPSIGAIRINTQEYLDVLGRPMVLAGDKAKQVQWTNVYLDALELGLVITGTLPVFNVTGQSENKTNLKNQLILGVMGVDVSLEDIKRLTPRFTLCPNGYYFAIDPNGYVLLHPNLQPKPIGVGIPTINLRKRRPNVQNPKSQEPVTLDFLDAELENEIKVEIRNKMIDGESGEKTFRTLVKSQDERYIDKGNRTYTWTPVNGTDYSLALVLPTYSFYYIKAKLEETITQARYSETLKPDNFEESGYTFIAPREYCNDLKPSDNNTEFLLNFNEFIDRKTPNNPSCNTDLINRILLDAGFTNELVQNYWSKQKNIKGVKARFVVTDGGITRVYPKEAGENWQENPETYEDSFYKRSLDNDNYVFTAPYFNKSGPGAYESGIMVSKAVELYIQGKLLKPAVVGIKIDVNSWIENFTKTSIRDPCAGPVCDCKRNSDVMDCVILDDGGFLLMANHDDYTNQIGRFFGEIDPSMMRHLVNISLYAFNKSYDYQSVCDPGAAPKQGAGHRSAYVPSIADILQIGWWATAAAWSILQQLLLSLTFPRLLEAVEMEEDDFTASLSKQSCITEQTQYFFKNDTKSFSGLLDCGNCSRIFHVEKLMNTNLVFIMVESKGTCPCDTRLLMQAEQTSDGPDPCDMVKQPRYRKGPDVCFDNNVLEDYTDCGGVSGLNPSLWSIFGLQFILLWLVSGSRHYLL
# Sequence (O70578 whole entry partner): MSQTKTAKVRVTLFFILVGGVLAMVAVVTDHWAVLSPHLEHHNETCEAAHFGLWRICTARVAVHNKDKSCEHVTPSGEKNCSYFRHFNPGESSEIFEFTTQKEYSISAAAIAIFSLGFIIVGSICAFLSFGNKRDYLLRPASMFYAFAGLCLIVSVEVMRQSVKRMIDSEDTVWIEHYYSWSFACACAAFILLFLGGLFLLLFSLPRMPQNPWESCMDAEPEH
# measurement description: Whole cell voltage-clamp measurement of L-type Ca2+ currents in isolated fdb muscle fibers
# Format: cell-based
# protocol conditions: L-type calcium peak current, mouse skeletal muscle fibers, control = maximum current without drug, read-out: % inhibition of Ca^2+ current
quantity kind: inhibition at 10 µM
Please report the result as a number followed by the unit.

In the examples that follow, each entry is paired with its recorded inhibition at 10 µM.
- COCCOC(=O)C1=C(C)NC(C)=C(C(=O)OC(C)C)C1c1cccc([N+](=O)[O-])c1 (centres unmarked): 48%
- CCOC(=O)C1=C(C)NC(C)=C(C(=O)OC)C1c1cccc([N+](=O)[O-])c1 (centres unmarked): 47.6%

Check the records and state inhibition at 10 µM for COC(=O)C1=C(C)NC2=C(C(=O)OC2)C1c1ccccc1[N+](=O)[O-] (centres unmarked)
50%

Check the records and state inhibition at 10 µM for COC(=O)C1=C(C)NC(C)=C(C(=O)OCC(C)C)C1c1ccccc1[N+](=O)[O-] (centres unmarked)
14.3%

Check the records and state inhibition at 10 µM for COC(=O)C1=C(C)NC(C)=C(C(=O)OCCN(C)Cc2ccccc2)C1c1cccc([N+](=O)[O-])c1 (centres unmarked)
32.6%
